Test system: CA1D cells
Experiment: Annexin V assay (apoptosis / cell death) time course in CA1D cells
Assay type: cell-based, human
Settings: high levels of TROLLs
Structures can show the parent of a compound that is named as a salt.
observation.type: response to drug in TNBC with high levels of TROLLs (in particular TROLL-2 and TROLL-3)

- compound: "CC(=O)O[C@H]1C(=O)[C@@]2(C)[C@H]([C@H](OC(=O)c3ccccc3)[C@]3(O)C[C@H](OC(=O)[C@H](O)[C@@H](NC(=O)c4ccccc4)c4ccccc4)C(C)=C1C3(C)C)[C@]1(OC(C)=O)CO[C@@H]1C[C@@H]2O"
  result: "limited response"
- compound: "CCCCCOC(=O)Nc1nc(=O)n([C@@H]2O[C@H](C)[C@@H](O)[C@H]2O)cc1F"
  result: "resistance"
- compound: "N.N.O=C([O-])C1(C(=O)[O-])CCC1.[Pt+2]"
  result: "resistance"
- compound: "COc1cccc2c1C(=O)c1c(O)c3c(c(O)c1C2=O)C[C@@](O)(C(=O)CO)C[C@@H]3O[C@H]1C[C@H](N)[C@H](O)[C@H](C)O1 [Adriamycin, Doxorubicin Hydrochloride]"
  result: "limited response"
- compound: "CC(=O)O[C@@]12CO[C@@H]1C[C@H](O)[C@@]1(C)C(=O)[C@H](O)C3=C(C)[C@@H](OC(=O)[C@H](O)[C@@H](NC(=O)OC(C)(C)C)c4ccccc4)C[C@@](O)([C@@H](OC(=O)c4ccccc4)[C@H]21)C3(C)C"
  result: "limited response"
- compound: "O=P1(N(CCCl)CCCl)NCCCO1 (stereo not drawn) [cyclophosphamide]"
  result: "resistance"
